- Assay Method Text: Metabolic stability in human liver microsomes assessed as intrinsic clearance at 1 uM incubated for 30 mins in presence of NADPH by LC-MS/MS analysis
- Format: ADME, Microsome
- Details: read-out: CLH
Measure: microsomal CLint at 1 µM (µL/min/mg)
Numbers only, in µL/min/mg.

Smiles Text: C=CC(=O)N1CC(n2cc(-c3ccncc3)c(-c3cccc(/C=C/c4ncc(C5CC5)o4)c3)n2)C1
Unit: µL/min/mg
microsomal CLint at 1 µM: 51

Please look at the following compound next.
# microsomal CLint at 1 µM (compound: `C=CC(=O)N1CC[C@H](n2cc(-c3ccncn3)c(-c3cccc(/C=C/c4ncc(C5CC5)o4)c3)n2)C1` ) is 202

---

- Assay Method Text: Lipophilicity, logD of compound in octanol and aqueous buffer at pH 7.4 incubated for 2 hrs by shake-flask method based LC-MS/MS analysis
- Type: physicochemical
Give logD at 2 h for every item shown.
Answers are plain numbers.

Smiles Text: C=CC(=O)N1CC[C@H](n2cc(-c3ccncc3)c(-c3cccc(NC(=O)c4cccc(OC)c4F)c3)n2)C1
logD at 2 h: 2.9
//
Smiles Text: C=CC(=O)N1CC[C@H](n2cc(-c3ccncc3)c(-c3cccc(OCc4ccc5c(c4)CN(C)C5=O)c3)n2)C1
logD at 2 h: 2.6
//
Smiles Text: C=CC(=O)N1CC[C@H](n2cc(-c3ccncc3)c(-c3cccc(NC(=O)c4cn(C5CC5)cn4)c3)n2)C1
logD at 2 h: 2.5
//
Smiles Text: C=CC(=O)N1CC(n2cc(-c3ccncc3)c(-c3cccc(NC(=O)c4cn(C5CC5)cn4)c3)n2)C1
logD at 2 h: 2.2
//
Smiles Text: C=CC(=O)N1CC[C@H](n2cc(-c3ccncc3)c(-c3ccc(F)c(OCc4ccc5c(c4)CN(C)C5=O)c3)n2)C1
logD at 2 h: 2.9

Count: 3. Required value per item: logD at 2 h.
1. C=CC(=O)NCCn1cc(-c2ncnc3cc(OC)c(OC)cc23)c(-c2cccc(OC)c2)n1
2. C=CC(=O)N1CC[C@H](n2cc(-c3ccncc3)c(-c3cccc(NC(=O)c4ccc5c(c4)CN(C)C5=O)c3)n2)C1
3. C=CC(=O)N1CC[C@H](n2cc(-c3ccncc3)c(-c3cccc(NC(=O)c4ncc(C5CC5)o4)c3)n2)C1

1: 2.4; 2: 2.2; 3: 3.1

# logD at 2 h (molecule: `C=CC(=O)N1C[C@@H](n2cc(-c3ccncc3)c(-c3cc(COc4ccc5c(c4)CN(C)C5=O)ccc3F)n2)C[C@H]1C` ) is 3.3

---

Give microsomal CLint at 1 µM for every item shown.
- Assay Method Text: Metabolic stability in human liver microsomes assessed as intrinsic clearance at 1 uM incubated for 30 mins in presence of NADPH by LC-MS/MS analysis
- Assay type: ADME, Microsome
- Details: read-out: CLH

Examples with their reported microsomal CLint at 1 µM follow.
Smiles Text: C=CC(=O)N1C[C@@H](n2cc(-c3ccncc3)c(-c3cc(COc4ccc5c(c4)CN(C)C5=O)ccc3F)n2)C[C@H]1C
Measure: microsomal CLint at 1 µM
Measured Result: > 300 µL/min/mg

Smiles Text: COc1cc2ncnc(-c3c[nH]nc3-c3cccc(OCc4ccc5c(c4)CN(C)C5=O)c3)c2cc1OC
Measure: microsomal CLint at 1 µM
Measured Result: > 300 µL/min/mg

Smiles Text: C=CC(=O)N1CC[C@H](n2cc(-c3ccncc3)c(-c3cc(F)cc(OCc4ccc5c(c4)CN(C)C5=O)c3)n2)C1
Measure: microsomal CLint at 1 µM
Measured Result: > 300 µL/min/mg

Please look at the following compound next.
# microsomal CLint at 1 µM (compound: `C=CC(=O)N1CC[C@H](n2cc(-c3ccncc3)c(-c3cccc(OCc4ccc5c(c4)CN(C)C5=O)c3)n2)C1` ) is > 264 µL/min/mg
